Values from PubChem BioAssay AID1159580

assay: chemical genetic growth profiling, strain panel (AID 1159580);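 also: tested at 20 µM; growth read once vehicle control cultures reached saturation at 30 °C; 1 = growth at the plate median or of vehicle wells; lower values mean less growth of the strain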; conditions: S. cerevisiae deletion strains, growth OD, locus YDR052C, strain DBF4, hits give low values
The campaign covered roughly 5,500 compounds. About 2,000 (36%) were called active. About 18% were inconclusive and are not listed. The list shows a part of the results.
The entries below are paired with their reported normalized growth.

{"Compound": "OC(CN1CCN(c2nc3ccc(Cl)cc3s2)CC1)Cn1ccc2ccccc21 (stereo not drawn)", "normalized growth": 1}
{"Compound": "CC1(C)OC(=O)C(=Cc2cccn2-c2ccc(OC(F)(F)F)cc2)C(=O)O1", "normalized growth": 0.989}
{"Compound": "O=[N+]([O-])c1ccc2oc(C(O)c3cccc(Cl)c3)cc2c1 (stereo not drawn)", "normalized growth": 0.953}
